Measured self-cleavage values are reported for all entries that follow.
B1: HDV Ribozyme (parent)
chain: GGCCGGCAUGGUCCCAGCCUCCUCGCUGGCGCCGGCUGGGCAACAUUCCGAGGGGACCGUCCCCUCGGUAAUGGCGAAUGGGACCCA

variants of: B1; assay: self-cleavage, relative activity (ratio to wild type); higher = more cleavage; co-transcriptional
Endpoint name: self-cleavage

>>> print(df.to_string())
    variant_name  value_observed
 0     U47G G54C           0.928
 1     A45C A71C           0.831
 2     C22G G39A          0.0817
 3     U20A U79G          0.0665
 4     G38A C66A          0.0992
 5     G29C G35U          0.0554
 6     A45U G53A           0.997
 7      C4A C19U          0.0203
 8      G1U C64G           0.432
 9     G53C A78C          0.0678
10     C19G C85G           0.111
11     G55C G68A           0.967
12     G80U C86G           0.243
13     C19A U65A           0.273
14     G38C C64U           0.369
15     G25U C30G           0.148
16     C18G C57U           0.237
17     A42C U72A           0.266
18     G31A G59U           0.383
19     A43G C85U           0.446
20     G29U A43C           0.136
21     A43G C64A           0.612
22     G25A C64G            0.13
23     G40C G73A           0.223
24     C62G G73A           0.534
25      C7G U27C           0.151
26      C3A A83C           0.177
27     U46A G80A           0.147
28     G50A G73A           0.623
29     C30G C75U          0.0755
30     U37A A83U           0.104
31     C19A C58A           0.095
32     C24U C66A           0.525
33     A45G G67U           0.933
34     C58G U60C             1.2
35      A8U G59U            1.04
36     C66G A71G            1.05
37     C36G C44U          0.0426
38     G52U A77C            0.54
39     C21G G34U          0.0604
40     C30U A45G           0.796
41     C44G A45C           0.578
42     U23G A78U          0.0875
43     C36U G68U           0.786
44     C21U U72C           0.284
45     C33A G40C           0.217
46      A8U C84G           0.462
47     G39A U72G           0.102
48      G1C A42U               0
49     U46C G59C           0.965
50      G6C A42G               0
51     U27C C66U           0.534
52     C26A C61U           0.974
53     A51U A70U           0.849
54      G5U C14U           0.612
55          G50C           0.963
56     A45G G68U           0.804
57     C30A A83U          0.0923
58     A42U A56U           0.577
59     A56G A71U           0.957
60       C4G G5C          0.0594
61     G17U C86G           0.583
62      U9G C26U           0.554
63     C64G G68C           0.264
64     G10C C85A           0.598
